Quick reference: PBM E-score of the listed items.
- STUDY SYSTEM: Stb4 (UniProt P50104)
- Sequence (P50104 whole entry): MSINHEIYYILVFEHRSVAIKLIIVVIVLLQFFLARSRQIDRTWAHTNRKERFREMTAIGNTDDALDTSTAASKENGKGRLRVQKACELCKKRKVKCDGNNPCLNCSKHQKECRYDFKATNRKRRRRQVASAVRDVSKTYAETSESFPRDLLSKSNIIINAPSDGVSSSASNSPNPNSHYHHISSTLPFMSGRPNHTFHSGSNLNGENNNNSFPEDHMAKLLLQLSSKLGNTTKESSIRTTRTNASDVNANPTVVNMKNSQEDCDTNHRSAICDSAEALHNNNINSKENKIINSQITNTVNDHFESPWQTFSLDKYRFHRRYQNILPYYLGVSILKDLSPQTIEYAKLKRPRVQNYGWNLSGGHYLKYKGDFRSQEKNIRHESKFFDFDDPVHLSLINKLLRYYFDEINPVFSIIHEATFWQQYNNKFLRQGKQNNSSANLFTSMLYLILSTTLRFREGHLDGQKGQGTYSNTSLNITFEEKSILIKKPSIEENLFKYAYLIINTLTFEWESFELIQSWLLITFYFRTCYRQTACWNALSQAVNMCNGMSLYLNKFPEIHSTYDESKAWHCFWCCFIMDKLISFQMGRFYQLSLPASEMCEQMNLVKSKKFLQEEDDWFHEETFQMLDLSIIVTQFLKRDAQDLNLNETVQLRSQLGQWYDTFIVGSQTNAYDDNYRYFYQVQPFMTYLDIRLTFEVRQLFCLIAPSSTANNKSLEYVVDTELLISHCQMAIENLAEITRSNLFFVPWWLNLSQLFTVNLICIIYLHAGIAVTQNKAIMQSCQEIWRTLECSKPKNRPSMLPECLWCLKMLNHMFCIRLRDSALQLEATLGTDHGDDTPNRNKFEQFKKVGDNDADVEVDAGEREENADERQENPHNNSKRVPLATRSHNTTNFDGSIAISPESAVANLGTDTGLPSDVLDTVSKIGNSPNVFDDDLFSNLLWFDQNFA
- TEST DETAILS: PBM E-score (8-mer binding enrichment) (E-score (-0.5 to 0.5)); higher = stronger / more preferred TF binding
- STUDY CONDITIONS: protein concentration: 200 nM; construct: GST-DNA-binding domain
In all, about 33,000 sequences were measured (“E-score (-0.5 to 0.5)”: median about -0.056, highest 2% from about 0.38 on). This excerpt belongs to a sample that is enriched for the highest values.
Form: value (number only, do not type unit).

CCCTCGTA -0.114
CACCTGAG -0.337
AGGTACCG 0.254
GACCTGTA -0.0511
ATGCTCGG 0.404
CAACTACG -0.0502
CTCTGCCC -0.215
CCCTCGGA 0.464

Exam item: Entry CTGATATC : reported PBM E-score = ?
Marked response: 0.136

Exam item: Bench note: what PBM E-score did GGACATAC show?
Marked response: 0.0378

Exam item: Query (sequence): AACTTAGT ; field requested: PBM E-score
Marked response: 0.0161

Exam item: Please report the recorded PBM E-score for CTACTGCA .
Marked response: -0.329

Exam item: For the sequence shown here, TTGATCAA , give the reported PBM E-score.
Marked response: -0.205

Exam item: // PBM E-score lookup, key: ACGCTCGC
Marked response: -0.227

Exam item: Query: PBM E-score; subject: ATTAGCCA
Marked response: -0.26

Exam item: Fill blank: measured PBM E-score of the sequence AGGGTATC is ____.
Marked response: -0.0302

Exam item: PBM E-score for GGGATATA ?
Marked response: 0.168

Exam item: Given the entry GCCTCGTA , report its measured PBM E-score.
Marked response: -0.0917

Exam item: Give its PBM E-score value. Item: ATTAGCCC
Marked response: -0.0135

Exam item: I have this sequence here, CCGAGAAG , and I need its recorded PBM E-score.
Marked response: 0.386

Exam item: Could you share which PBM E-score value was measured for AAATGCGC ?
Marked response: -0.041

Exam item: Please look up its PBM E-score: ACCAGGCG
Marked response: -0.159

Exam item: What measured PBM E-score goes with CGGATATC ?
Marked response: 0.426

Exam item: Returns the measured PBM E-score for the input sequence. Input: ACTACTTG
Marked response: -0.195

Exam item: May I ask what PBM E-score has been recorded for ACTAGGGG ?
Marked response: -0.0854

Exam item: Could you share which PBM E-score value was measured for CTCGGACC ?
Marked response: 0.412

Exam item: Returns the measured PBM E-score for the input sequence. Input: CACGGACC
Marked response: 0.114

Exam item: Fill in the blank: the reported PBM E-score of ACCCGACG is ____.
Marked response: 0.425
